Values from patent US20250043022A1

# Study Target: T1, human PSMA antigen (R&D SYSTEM, 4234-ZN-010) (human, UniProt Q04609 44-750)
# T1 construct: bought antigen
# T1 sequence (Q04609 44-750 limits assumed): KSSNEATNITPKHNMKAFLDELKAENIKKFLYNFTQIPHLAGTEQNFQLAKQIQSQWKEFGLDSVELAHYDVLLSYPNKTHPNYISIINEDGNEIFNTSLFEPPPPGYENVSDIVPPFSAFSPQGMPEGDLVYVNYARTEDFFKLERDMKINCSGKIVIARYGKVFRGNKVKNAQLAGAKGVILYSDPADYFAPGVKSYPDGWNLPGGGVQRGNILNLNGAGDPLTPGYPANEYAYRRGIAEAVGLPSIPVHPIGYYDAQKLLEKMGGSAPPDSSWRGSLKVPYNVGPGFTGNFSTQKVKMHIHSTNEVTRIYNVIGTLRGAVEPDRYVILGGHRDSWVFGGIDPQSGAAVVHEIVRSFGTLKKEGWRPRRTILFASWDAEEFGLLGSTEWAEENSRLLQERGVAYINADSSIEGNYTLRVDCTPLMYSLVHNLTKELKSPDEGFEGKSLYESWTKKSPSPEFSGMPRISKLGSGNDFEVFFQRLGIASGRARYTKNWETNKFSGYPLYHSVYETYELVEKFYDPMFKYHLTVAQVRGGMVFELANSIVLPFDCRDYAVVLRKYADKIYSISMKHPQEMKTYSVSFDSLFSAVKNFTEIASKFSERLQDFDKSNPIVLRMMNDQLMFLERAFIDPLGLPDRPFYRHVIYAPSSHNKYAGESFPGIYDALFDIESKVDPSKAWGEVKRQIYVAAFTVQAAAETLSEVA
# Assay Overview: ELISA, plate-bound PSMA antigen
Parameter Measured: Top (maximum absorbance)
Write the numeric value and follow it with the unit.

Binder	Parameter Measured	Test Value
chi73 (antibody, human IgG1, kappa, V domains shown) VH: QVQLQQSGPELVKPGASVKISCKASGYAFSTSWMNWVKERPGKGLEWIGRIYPGDGDTKYNGKFQGKATLTADKSSSTAYMKLSSLTSEDSAVYFCVRSIYYLYYFDYWGQGTTLTVSS VL: DIQMTQPTSSLSASLGDRVTISCSTSQDIYNNLSWFQQKPDGTVRLLIYYTSSLHSGVPSRFSGSGSGTDYSLTISNLEPEDIATYYCQQYNNLPFTFGGGTNLEIRR	Top (maximum absorbance)	2.08 absorbance
hu15H4L2 (antibody, human IgG1, kappa, V domains shown) VH: EFQLVQSGAEVKKPGASVKVSCKASGYSFTDHNMNWVRQAPGQRLEWMGLINPNYGTADYNQKFKGRVTLTVDQSATTAYMELSSLRSEDTAVYYCARGSSLFAYWGQGTLVTVSS VL: DIQMTQSPSSLSASVGDRVTITCKASQGVDTAVAWYQQKPGKSPKLLIYWASTRHTGVPDRFSGSGSGTDFTLTISSLQPEDVATYYCQQYSRYPLTFGQGTKLEIKR	Top (maximum absorbance)	2.23 absorbance

Notebook: hu2H1L1 (antibody, human IgG1, kappa, V domains shown) VH: EVQLVESGGGLVQPGGSLRLSCAASGFTFSDYYMAWVRQAPGKGLEWVANINFDGSSTYYLDSLKSRFTISRDNAKNSLYLQMNSLRAEDTAVYYCARDLDGYYGYFDVWGQGTTVTVSS VL: EIVLTQSPDFQSVTPKEKVTITCSASSSVSHMYWYQQKPDQSPKLLIYRTSNLASGVPSRFSGSGSGTDFTLTINSLEAEDAATYYCQQYHSYPLMFGQGTKLEIKR , Top (maximum absorbance) read as 0.975 absorbance
